tested.target: huPD-L1 (Homo sapiens, UniProt Q9NZQ7)
Sequence (Q9NZQ7 19-290): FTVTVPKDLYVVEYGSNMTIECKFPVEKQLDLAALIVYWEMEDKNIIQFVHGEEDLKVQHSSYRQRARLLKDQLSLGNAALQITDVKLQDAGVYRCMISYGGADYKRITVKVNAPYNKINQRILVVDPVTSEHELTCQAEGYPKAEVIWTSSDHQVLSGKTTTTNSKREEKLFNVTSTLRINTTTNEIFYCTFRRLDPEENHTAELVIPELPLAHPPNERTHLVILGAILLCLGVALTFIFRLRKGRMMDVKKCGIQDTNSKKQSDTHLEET
test: Flow binding to CHO cells stably expressing PD-L1
Design: huCTLA4 and huPD-L1, full-length mammalian surface expression constructs were generated; expressed in transfected cells; host or cells: CHO cells, lentiviral transduction, sorted to >98% purity
cond: Table E11; 33.3 nM; listed as WT CD80 ECD-Fc = 1.0
metric.name: PD-L1 Fold change to WT CD80

molecule | reported.measurement
H18Y/E35D/V68M/T79M/L85M (protein, UniProt P33681 35-288, looked up, variant H18Y E35D V68M T79M L85M) T-lymphocyte activation …: VIHVTKEVKEVATLSCGYNVSVEELAQTRIYWQKDKKMVLTMMSGDMNIWPEYKNRTIFDITNNLSIMILALRPSDEGMYECVVMKYEKDAFKREHLAEVTLSVKADFPTPSISDFEIPTSNIRRIICSTSGGFPEPHLSWLENGEELNAINTTVSQDPETELYAVSSKLDFNMTTNHSFMCLIKYGHLRVNQTFNWNTTKQEHFPDNLLPSWAITLISVNGIFVICCLTYCFAPRCRERRRNERLRRESVRPV | 289.5
E35D/M43I/M47L/V68M (protein, UniProt P33681 35-288, looked up, variant E35D M43I M47L V68M) T-lymphocyte activation …: VIHVTKEVKEVATLSCGHNVSVEELAQTRIYWQKDKKMVLTMISGDLNIWPEYKNRTIFDITNNLSIMILALRPSDEGTYECVVLKYEKDAFKREHLAEVTLSVKADFPTPSISDFEIPTSNIRRIICSTSGGFPEPHLSWLENGEELNAINTTVSQDPETELYAVSSKLDFNMTTNHSFMCLIKYGHLRVNQTFNWNTTKQEHFPDNLLPSWAITLISVNGIFVICCLTYCFAPRCRERRRNERLRRESVRPV | 328.4
